- study-system: T7 RNA polymerase (Escherichia phage T7, UniProt P00573)
- Sequence (P00573 whole entry): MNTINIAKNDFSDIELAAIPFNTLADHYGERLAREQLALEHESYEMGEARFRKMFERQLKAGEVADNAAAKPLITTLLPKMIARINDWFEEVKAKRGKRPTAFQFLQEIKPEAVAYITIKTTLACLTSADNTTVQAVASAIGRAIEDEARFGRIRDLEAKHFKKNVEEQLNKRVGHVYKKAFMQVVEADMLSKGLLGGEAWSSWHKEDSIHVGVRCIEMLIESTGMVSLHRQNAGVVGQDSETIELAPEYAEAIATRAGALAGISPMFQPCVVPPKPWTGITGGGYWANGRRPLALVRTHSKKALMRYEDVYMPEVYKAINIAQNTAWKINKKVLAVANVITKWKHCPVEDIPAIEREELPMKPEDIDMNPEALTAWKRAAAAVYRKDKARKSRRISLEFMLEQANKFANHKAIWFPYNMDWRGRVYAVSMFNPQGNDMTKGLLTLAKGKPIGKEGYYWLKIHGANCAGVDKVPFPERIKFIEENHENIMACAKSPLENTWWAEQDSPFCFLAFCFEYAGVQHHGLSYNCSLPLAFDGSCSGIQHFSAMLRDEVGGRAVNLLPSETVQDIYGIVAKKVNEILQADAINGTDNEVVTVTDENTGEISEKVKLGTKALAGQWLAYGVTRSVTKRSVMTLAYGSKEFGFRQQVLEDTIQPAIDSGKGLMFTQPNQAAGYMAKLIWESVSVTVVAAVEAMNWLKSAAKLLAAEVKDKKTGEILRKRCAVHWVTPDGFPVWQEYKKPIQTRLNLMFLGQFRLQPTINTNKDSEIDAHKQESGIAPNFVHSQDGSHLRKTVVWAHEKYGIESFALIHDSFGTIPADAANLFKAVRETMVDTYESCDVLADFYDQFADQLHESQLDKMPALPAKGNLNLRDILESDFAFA
pIC50: −log10 of the molar value.

{"compound": "CCCCCCCC/C=C\\CCCCCCCC(=O)Oc1cccc2c1C(=O)C=C(C)C2=O [2f, 5-O-oleoyl-2-methyl-1,4-naphthoquinone]", "pIC50": "< 4.00"}

----------
- study-system: Rat pol β (Rattus norvegicus, UniProt P06766)
- Construct: made in house; host or cells: Escherichia coli JMpβ5
- assay-details: DNA polymerase activity inhibition
- Type: biochemical
- study-conditions: 0.05 units enzyme; mean ± SD (n = 3)
pIC50: −log10 of the molar value.
value-type: pIC50

{"molecule": "CCCCCCCC/C=C\\CCCCCCCC(=O)Oc1cccc2c1C(=O)C=C(C)C2=O [2f, 5-O-oleoyl-2-methyl-1,4-naphthoquinone]", "reported": 4.99}
